For each of the compounds below, state its Post-emergence effect against ABUTH.
- Test system: ABUTH
- ASSAY PROCEDURE: Post-emergence herbicidal effect, greenhouse pot test
- Assay type: in vivo, Abutilon theophrasti
- TEST CONDITIONS: 320 g/ha, visual rating about 3 weeks after treatment

For reference, reported Post-emergence effect against ABUTH for COC(=O)CCOC(=O)C(OC)Oc1nn(-c2cccc(C)c2F)c(-c2ccc(F)nc2)c1Br (stereo not shown) stands at 90%

The compound COC(=O)CCOC(=O)C(OC)Oc1nn(-c2ccccc2F)c(-c2ccc(F)nc2)c1Br (single isomer, unassigned) [Example I-20] showed Post-emergence effect against ABUTH equal to 90%

Just so you know, measured Post-emergence effect against ABUTH for COC(=O)C(OC)Oc1nn(-c2cccc(C)c2F)c(-c2ccnc(F)c2)c1Br (stereo not shown) came out at 80%

Form field Post-emergence effect against ABUTH, entry COC(=O)CCOC(=O)C(OC)Oc1nn(-c2cc(F)ccc2F)c(-c2cncc(F)c2)c1C1CC1 (stereo not shown) [Example I-83] : 90%

----------
- Test system: VIOTR
- ASSAY PROCEDURE: Post-emergence herbicidal effect, greenhouse pot test
- Type: in vivo, Viola tricolor
- TEST CONDITIONS: Viola tricolor, 504 h, 20 g/ha, read-out: Post-emergence effect against VIOTR in %
Could you please report measured pest or weed control at 20 g/ha for the items listed next?
The response must be a number in % with no trailing unit.

VIOTR pest or weed control at 20 g/ha of CCOC(=O)C(OC)Oc1nn(-c2cc(F)ccc2F)c(-c2cncc(F)c2)c1C1CC1 (stereo not shown) is 80

Param item: CCOC(=O)C(OC)Oc1nn(-c2ccccc2F)c(-c2ccc(F)nc2)c1Br (stereo not shown) ; param system: VIOTR; output pest or weed control at 20 g/ha: 80

Fill in: VIOTR pest or weed control at 20 g/ha for COC(Oc1nn(-c2cc(F)ccc2F)c(-c2cncc(F)c2)c1C1CC1)C(=O)O (stereo not shown) = 80

Tested on VIOTR: COC(=O)C(OC)Oc1nn(-c2cc(F)ccc2F)c(-c2cncc(F)c2)c1C1CC1 (stereo not shown) . Observed pest or weed control at 20 g/ha: 80

Recorded pest or weed control at 20 g/ha for CCOC(=O)C(OC)Oc1nn(-c2ncccc2F)c(-c2ccc(F)nc2)c1Cl (stereo not shown) on VIOTR was 80

Form field, pest or weed control at 20 g/ha with VIOTR, item COC(=O)C(OC)Oc1nn(-c2ncccc2F)c(-c2cncc(F)c2)c1I (stereo not shown) : 90

Query CCOC(=O)C(OC)Oc1nn(-c2ncccc2F)c(-c2cncc(F)c2)c1C1CC1 (stereo not shown) on VIOTR; pest or weed control at 20 g/ha returned: 90

----------
- Test system: AVEFA
- ASSAY PROCEDURE: Pre-emergence herbicidal effect, greenhouse pot test
- Type: in vivo, Avena fatua
- TEST CONDITIONS: 320 g/ha, scored visually after about 3 weeks vs untreated controls
Exercise: state measured Pre-emergence effect at 320 g/ha against AVEFA in % for each of the compounds provided.
Reply numerically in %, unit not repeated.

Form: item COC(=O)C(OC)Oc1nn(-c2ccccc2F)c(-c2ccc(F)nc2)c1I (stereo not shown) ; test system AVEFA; Pre-emergence effect at 320 g/ha against AVEFA in %: 90

Query COC(=O)C(OC)Oc1nn(-c2cc(F)ccc2F)c(-c2cncc(F)c2)c1C1CC1 (stereo not shown) on AVEFA; Pre-emergence effect at 320 g/ha against AVEFA in % returned: 90

Reported AVEFA Pre-emergence effect at 320 g/ha against AVEFA in % for item COC(=O)CCOC(=O)C(OC)Oc1nn(-c2ncccc2F)c(-c2cncc(F)c2)c1C1CC1 (single isomer, unassigned) was 100

Let me check: COC(=O)C(OC)Oc1nn(-c2ccccc2F)c(-c2ccc(F)nc2)c1Br (racemic) , system AVEFA, measured Pre-emergence effect at 320 g/ha against AVEFA in % is 80

With AVEFA as the test system, COC(Oc1nn(-c2cc(F)ccc2F)c(-c2cncc(F)c2)c1C1CC1)C(=O)O (stereo not shown) showed Pre-emergence effect at 320 g/ha against AVEFA in % of 100

Result for COC(=O)C(OC)Oc1nn(-c2ncccc2F)c(-c2ccc(F)cc2F)c1Br (stereo not shown) , tested on AVEFA, Pre-emergence effect at 320 g/ha against AVEFA in %: 80

Short answer on AVEFA for COC(=O)C(OC)Oc1nn(-c2ncccc2F)c(-c2ccc(F)nc2)c1Br (stereo not shown) , Pre-emergence effect at 320 g/ha against AVEFA in %: 90

----------
Exercise: for every item that follows, state its recorded Post-emergence effect against TRZAS.
- System: TRZAS
- ASSAY PROCEDURE: Post-emergence herbicidal effect and crop plant compatibility, greenhouse pot test
- Type: in vivo, Triticum aestivum
- TEST CONDITIONS: 80 g/ha, visual rating about 3 weeks after treatment, crop plant
Response body: numeric value in %, unit text excluded.

Short answer for COC(=O)C(OC)Oc1nn(-c2cccc(C)c2F)c(-c2ccc(F)nc2)c1C1CC1 (stereo not drawn) : Post-emergence effect against TRZAS was 10

For COC(=O)C(OC)Oc1nn(-c2ccccc2F)c(-c2ccc(F)nc2)c1C(F)(F)C(F)(F)F (stereo not drawn) the compound record lists Post-emergence effect against TRZAS as 0

The recorded Post-emergence effect against TRZAS for entry COC(=O)C(OC)Oc1nn(-c2cccc(C)c2F)c(-c2ccc(F)nc2)c1Br (stereo not drawn) equals 20

Measured Post-emergence effect against TRZAS, COC(=O)C(OC)Oc1nn(-c2ccc(Cl)cc2F)c(-c2ccc(F)cc2F)c1Br (stereo not drawn) : 0

Data point: COC(=O)CCOC(=O)C(OC)Oc1nn(-c2cccc(C)c2F)c(-c2ccc(F)nc2)c1Br (stereo not drawn) ; Post-emergence effect against TRZAS = 0

The compound CCOC(=O)C(OCC)Oc1nn(-c2ccc(Cl)cc2F)c(-c2ccc(F)cc2F)c1Br (stereo not drawn) showed Post-emergence effect against TRZAS equal to 0

For COC(Oc1nn(-c2cccc(C)c2F)c(-c2ccnc(F)c2)c1Br)C(=O)O (stereo not drawn) the compound record lists Post-emergence effect against TRZAS as 10

For reference, reported Post-emergence effect against TRZAS for COC(=O)C(OC)Oc1nn(-c2cccc(C)c2F)c(-c2ccnc(F)c2)c1Br (stereo not drawn) stands at 10

The compound listed as CCOC(=O)C(OC)Oc1nn(-c2cccc(C)c2F)c(-c2ccc(F)nc2)c1Br (stereo not drawn) shows Post-emergence effect against TRZAS equal to 10

----------
Please provide measured Post-emergence effect against PHBPU in % for the entries that follow.
- Test system: PHBPU
- ASSAY PROCEDURE: Post-emergence herbicidal effect, greenhouse pot test
- Type: in vivo, Ipomoea purpurea
- TEST CONDITIONS: 20 g/ha
Supply the numeric figure in %, leaving out any unit text.

Input COC(=O)CCOC(=O)C(OC)Oc1nn(-c2ccccc2F)c(-c2ccc(F)nc2)c1C(F)(F)F (stereo not drawn) . Output Post-emergence effect against PHBPU in %: 90

For reference, reported Post-emergence effect against PHBPU in % for COC(=O)C(OC)Oc1nn(-c2cccc(Cl)c2F)c(-c2cncc(F)c2)c1Br (stereo not drawn) stands at 90

Quick note, Post-emergence effect against PHBPU in % for COC(=O)C(OC)Oc1nn(-c2cccc(Cl)c2F)c(-c2cncc(F)c2)c1I (stereo not drawn) landed at 80

Documented Post-emergence effect against PHBPU in % of COC(=O)C(OC)Oc1nn(-c2cc(F)ccc2F)c(-c2cncc(F)c2)c1C1CC1 (stereo not drawn) : 90

Item: CCOC(=O)C(OC)Oc1nn(-c2cccc(C)c2F)c(-c2ccc(F)nc2)c1Br (stereo not drawn) | Post-emergence effect against PHBPU in %: 80

Recorded result, COC(=O)CCOC(=O)C(OC)Oc1nn(-c2cc(F)ccc2F)c(-c2cncc(F)c2)c1C1CC1 (single isomer, unassigned) [Example I-78] , Post-emergence effect against PHBPU in %: 80

# molecule COC(=O)CCOC(=O)C(OC)Oc1nn(-c2ccccc2F)c(-c2ccc(F)nc2)c1C1CC1 (single isomer, unassigned) ; its Post-emergence effect against PHBPU in % = 80

For COC(=O)CCOC(=O)C(OC)Oc1nn(-c2cc(F)ccc2F)c(-c2cncc(F)c2)c1C1CC1 (single isomer, unassigned) [Example I-79] the molecule record lists Post-emergence effect against PHBPU in % as 90

Measured Post-emergence effect against PHBPU in % of COC(=O)C(OC)Oc1nn(-c2ncccc2F)c(-c2cncc(F)c2)c1C1CC1 (stereo not drawn) [Example I-87] : 90

Lab note: measured Post-emergence effect against PHBPU in % of COC(=O)CCOC(=O)C(OC)Oc1nn(-c2cc(F)ccc2F)c(-c2cncc(F)c2)c1C1CC1 (stereo not drawn) [Example I-83] was 90

For COC(Oc1nn(-c2ncccc2F)c(-c2cncc(F)c2)c1C1CC1)C(=O)O (stereo not drawn) the molecule record lists Post-emergence effect against PHBPU in % as 80

Per the records, this molecule ( COC(=O)C(OC)Oc1nn(-c2ncccc2F)c(-c2cncc(F)c2)c1C1CC1 (stereo not drawn) [Example I-86] ) has Post-emergence effect against PHBPU in % equal to 80
